Hello, the source for this data is ChEMBL document CHEMBL1155385, in case you need it.

- TARGET SYSTEM: Histamine H1 receptor (Homo sapiens, UniProt P35367)
- Sequence (P35367 whole entry): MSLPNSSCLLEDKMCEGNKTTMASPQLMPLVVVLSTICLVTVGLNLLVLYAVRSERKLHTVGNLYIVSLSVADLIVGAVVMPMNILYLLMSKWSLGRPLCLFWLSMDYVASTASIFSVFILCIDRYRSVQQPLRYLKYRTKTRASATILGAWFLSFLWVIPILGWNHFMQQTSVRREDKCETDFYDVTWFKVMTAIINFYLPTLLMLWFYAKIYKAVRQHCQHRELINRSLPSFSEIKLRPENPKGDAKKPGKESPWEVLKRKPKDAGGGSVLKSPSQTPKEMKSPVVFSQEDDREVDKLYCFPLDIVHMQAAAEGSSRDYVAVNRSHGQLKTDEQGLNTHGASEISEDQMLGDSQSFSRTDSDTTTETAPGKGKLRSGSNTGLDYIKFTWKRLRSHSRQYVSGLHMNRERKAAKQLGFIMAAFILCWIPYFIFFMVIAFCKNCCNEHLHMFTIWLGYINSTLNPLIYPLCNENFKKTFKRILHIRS
pKi: −log10 of the molar value.
ENDPOINT LABEL: pKi

> print(dat)
                                   compound                             target.system  result
1  O=C1N(CC2CCCCN2)CCN1c1cccc(Cl)c1 (stereo unspecified)  Histamine H1 receptor (Homo sapiens, UniProt P35367)  < 5.60

---

- TARGET SYSTEM: D(2) dopamine receptor (Homo sapiens)
- METHOD SUMMARY: Partial agonistic activity at human dopamine D2 receptor expressed in CHO cells by assay [35S]GTPgamma assay with scintillation proximity affinity assay
ENDPOINT LABEL: EC50

> print(dat)
                                    compound     result
 1     O=C1N(CCN2CCCCCC2)CCN1c1ccc(F)c(Cl)c1      10 nM
 2        O=C1N(CCN2CCCCCC2)CCN1c1ccc(Cl)cc1    50.1 nM
 3         O=C1N(CCN2CCCCCC2)CCN1c1ccc(F)cc1      10 nM
 4       O=c1n(CCN2CCCCCC2)ccn1-c1cccc(Cl)c1     126 nM
 5            O=C1N(CCN2CCCCCC2)CCN1c1cccnc1    7.94 nM
 6  O=C1N(CC2CCCNC2)CCN1c1cccc(Cl)c1 (stereo unspecified)  > 7940 nM
 7    O=C1N(CCN2CCCCCC2)CCN1c1cc(Cl)cc(Cl)c1  > 7940 nM
 8          O=C1N(CC2CCNCC2)CCN1c1cccc(Cl)c1  > 7940 nM
 9         Cc1ccc(N2CCN(CCN3CCCCCC3)C2=O)cc1  > 7940 nM
10      O=c1n(CCCN2CCCCCC2)ccn1-c1cccc(Cl)c1  > 7940 nM
11           Cc1ccccc1N1CCN(CCN2CCCCCC2)C1=O  > 7940 nM

---

- TARGET SYSTEM: D(2) dopamine receptor (Homo sapiens)
- METHOD SUMMARY: Partial agonistic activity at human dopamine D2 receptor expressed in CHO cells by assay [35S]GTPgamma assay with scintillation proximity affinity assay
ENDPOINT LABEL: Ki (nM)

> print(dat)
                                   compound                          target.system  numeric.value
1  CN1CCCCC1CN1CCN(c2cccc(Cl)c2)C1=O (configuration not stated)  D(2) dopamine receptor (Homo sapiens)           15.8
2         Cc1cccc(N2CCN(CCN3CCCCCC3)C2=O)c1  D(2) dopamine receptor (Homo sapiens)           25.1
3        O=C1N(CCN2CCCCCC2)CCN1c1ccc(Cl)cc1  D(2) dopamine receptor (Homo sapiens)            100
4    O=C1N(CCN2CCCCCC2)CCN1c1cc(Cl)cc(Cl)c1  D(2) dopamine receptor (Homo sapiens)          0.631
5            O=C1N(CCN2CCCCCC2)CCN1c1ccccc1  D(2) dopamine receptor (Homo sapiens)           7.94
6         Cc1ccc(N2CCN(CCN3CCCCCC3)C2=O)cc1  D(2) dopamine receptor (Homo sapiens)           50.1
7      O=c1n(CCCN2CCCCCC2)ccn1-c1cccc(Cl)c1  D(2) dopamine receptor (Homo sapiens)            631

---

- TARGET SYSTEM: UniProtKB P08908
- Sequence (P08908 whole entry): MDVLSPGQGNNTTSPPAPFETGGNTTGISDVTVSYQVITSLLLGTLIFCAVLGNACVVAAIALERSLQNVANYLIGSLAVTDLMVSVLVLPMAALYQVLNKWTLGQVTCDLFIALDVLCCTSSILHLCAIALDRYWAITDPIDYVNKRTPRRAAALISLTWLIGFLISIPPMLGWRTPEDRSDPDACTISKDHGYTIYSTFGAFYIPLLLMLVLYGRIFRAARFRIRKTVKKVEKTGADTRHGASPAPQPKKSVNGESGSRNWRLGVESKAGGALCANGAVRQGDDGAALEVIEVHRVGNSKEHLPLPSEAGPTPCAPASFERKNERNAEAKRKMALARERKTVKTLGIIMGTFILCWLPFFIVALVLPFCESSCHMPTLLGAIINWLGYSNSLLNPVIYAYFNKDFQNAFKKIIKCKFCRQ
- METHOD SUMMARY: Binding affinity to 5HT1A receptor
ENDPOINT LABEL: EC50 (µM)

> print(dat)
                                   molecule     target.system  numeric.value
1  O=C1N(CC2CCCCN2)CCN1c1cccc(Cl)c1 (stereo unspecified)  UniProtKB P08908          0.794

---

- METHOD SUMMARY: Lipophilicity, log D at pH 7.4
- Assay type: physicochemical
- SETUP CONDITIONS: buffer
ENDPOINT LABEL: logD

> print(dat)
                                   compound  numeric.value
1  O=C1N(CC2CCCCN2)CCN1c1cccc(Cl)c1 (stereo unspecified)           1.24

---

- TARGET SYSTEM: D(2) dopamine receptor (Homo sapiens, UniProt P14416)
- Sequence (P14416 whole entry): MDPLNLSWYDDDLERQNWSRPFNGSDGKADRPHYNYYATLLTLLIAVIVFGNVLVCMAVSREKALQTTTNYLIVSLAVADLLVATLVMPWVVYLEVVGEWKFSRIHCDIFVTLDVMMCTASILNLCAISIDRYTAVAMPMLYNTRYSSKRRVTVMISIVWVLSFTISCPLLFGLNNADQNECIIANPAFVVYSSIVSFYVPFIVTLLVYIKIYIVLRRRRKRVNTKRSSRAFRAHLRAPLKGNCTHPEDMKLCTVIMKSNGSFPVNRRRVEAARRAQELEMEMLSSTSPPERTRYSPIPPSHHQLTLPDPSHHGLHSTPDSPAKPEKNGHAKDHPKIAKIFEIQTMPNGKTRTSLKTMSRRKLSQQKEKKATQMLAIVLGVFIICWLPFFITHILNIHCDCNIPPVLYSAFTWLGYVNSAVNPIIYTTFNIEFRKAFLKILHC
- METHOD SUMMARY: Partial agonistic activity at human dopamine D2 receptor expressed in CHO cells by assay [35S]GTPgamma assay with scintillation proximity affinity assay
ENDPOINT LABEL: log10 of Ki (log10 of the value in nM)

> print(dat)
                                    compound  numeric.value
 1            O=C1N(CCN2CCCCCC2)CCN1c1ccncc1           2.80
 2  O=C1N(CC2CCCCN2)CCN1c1cccc(C(F)(F)F)c1 (stereo unspecified)           1.30
 3         O=C1N(CCN2CCCCCC2)CCN1c1ccc(F)cc1           1.80
 4       O=c1n(CCN2CCCCCC2)ccn1-c1cccc(Cl)c1           2.60
 5        O=C1N(CCN2CCCCCC2)CCN1c1cccc(Cl)c1           1.00
 6         O=C1N(CCN2CCCCCC2)CCN1c1cccc(F)c1           0.40
 7        COc1cccc(N2CCN(CCN3CCCCCC3)C2=O)c1           1.60
 8  O=C1N(CCN2CCCCCC2)CCN1c1cccc(C(F)(F)F)c1           0.20
 9     O=C1N(CCN2CCCCCC2)CCN1c1ccc(F)c(Cl)c1           1.20
10            O=C1N(CCN2CCCCCC2)CCN1c1cccnc1           2.00
11    O=S1(=O)N(CCN2CCCCCC2)CCN1c1cccc(Cl)c1           2.30
12  O=C1N(CC2CCCCN2)CCN1c1cccc(Cl)c1 (stereo unspecified)           1.90

---

- TARGET SYSTEM: Cytochrome P450 2D6 (Homo sapiens, UniProt P10635)
- Sequence (P10635 whole entry): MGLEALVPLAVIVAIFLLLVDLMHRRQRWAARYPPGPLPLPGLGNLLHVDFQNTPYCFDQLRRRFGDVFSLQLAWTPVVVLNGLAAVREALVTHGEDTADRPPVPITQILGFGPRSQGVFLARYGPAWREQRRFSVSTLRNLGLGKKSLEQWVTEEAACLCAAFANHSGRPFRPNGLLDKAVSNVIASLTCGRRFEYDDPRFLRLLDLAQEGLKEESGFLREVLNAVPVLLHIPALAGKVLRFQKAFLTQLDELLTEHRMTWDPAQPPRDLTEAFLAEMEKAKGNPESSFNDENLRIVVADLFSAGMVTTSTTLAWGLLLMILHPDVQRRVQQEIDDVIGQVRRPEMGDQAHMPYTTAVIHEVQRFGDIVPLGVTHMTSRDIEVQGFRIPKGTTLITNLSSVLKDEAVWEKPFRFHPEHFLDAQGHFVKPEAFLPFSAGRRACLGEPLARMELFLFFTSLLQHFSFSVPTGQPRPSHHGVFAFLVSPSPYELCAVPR
- METHOD SUMMARY: Inhibition of human recombinant CYP2D6 by spectrofluorimetry
pIC50: −log10 of the molar value.
ENDPOINT LABEL: pIC50

> print(dat)
                                   molecule                             target.system  numeric.value
1  O=C1N(CC2CCCCN2)CCN1c1cccc(Cl)c1 (stereo unspecified)  Cytochrome P450 2D6 (Homo sapiens, UniProt P10635)           6.00

---

- METHOD SUMMARY: Intrinsic clearance in human liver microsomes
- Format: ADME, Microsome
ENDPOINT LABEL: CLint scaled (mL/min/g)

> print(dat)
                                   compound  measurement.unit  numeric.value
1  O=C1N(CC2CCCCN2)CCN1c1cccc(Cl)c1 (stereo unspecified)          mL/min/g            3.4

---

- TARGET SYSTEM: D(2) dopamine receptor (Homo sapiens, UniProt P14416)
- METHOD SUMMARY: Partial agonistic activity at human dopamine D2 receptor expressed in CHO cells by assay [35S]GTPgamma assay with scintillation proximity affinity assay
Reported EC50 by item:
ENDPOINT LABEL: EC50 (nM)

> print(dat)
                                   compound                             target.system  endpoint.label  result.comparator  numeric.value
1  O=C1N(CC2CCCCN2)CCN1c1cccnc1 (stereo unspecified)  D(2) dopamine receptor (Homo sapiens, UniProt P14416)            EC50                  =            501
2    O=S1(=O)N(CCN2CCCCCC2)CCN1c1cccc(Cl)c1  D(2) dopamine receptor (Homo sapiens, UniProt P14416)            EC50                  =            126
3  O=C1N(CCN2CCCCCC2)CCN1c1cccc(C(F)(F)F)c1  D(2) dopamine receptor (Homo sapiens, UniProt P14416)            EC50                  >           7940
4         O=C1N(CCN2CCCCCC2)CCN1c1cccc(F)c1  D(2) dopamine receptor (Homo sapiens, UniProt P14416)            EC50                  =          0.794
5            O=C1N(CCN2CCCCCC2)CCN1c1ccccc1  D(2) dopamine receptor (Homo sapiens, UniProt P14416)            EC50                  =          0.631
6        O=C1N(CCN2CCCCCC2)CCN1c1cccc(Cl)c1  D(2) dopamine receptor (Homo sapiens, UniProt P14416)            EC50                  =              1
